assay.protocol: recombinant barcode read abundance after kanamycin selection (control-corrected) (log10(CPM+1)); higher = more efficient recombination; sequences stand for … in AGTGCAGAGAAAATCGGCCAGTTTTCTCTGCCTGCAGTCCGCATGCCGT…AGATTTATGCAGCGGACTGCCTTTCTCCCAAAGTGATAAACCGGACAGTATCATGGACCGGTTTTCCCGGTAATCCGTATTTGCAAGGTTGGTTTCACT; site = the 11-nt target;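 also: IS621 recombinase and bridge RNA in Escherichia coli cells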
Criterion: recombinant barcode read abundance (log10) meeting or surpassing 0.2. Met: Criterion met. Not met: Criterion not met.

Past entries and their recorded results:
chain="CCGGACCCTTGGGTTCTAACCTGTTGCTG (site CCGTGCCCTCA)" label_class="Criterion met"
chain="ACGCAGTCTTGGGTTCTAACCTGTTGCCT (site ACGCACTCTAG)" label_class="Criterion not met"
chain="AGTCTCTCTTGGGTTCTAACCTGTTGCTA (site AGTCTCTCTCG)" label_class="Criterion not met"
chain="TATGTACCTTGGGTTCTAACCTGTTGCCT (site CATGTACCTAG)" label_class="Criterion met"
chain="CAAGATGCTTGGGTTCTAACCTGTTGCCT (site CAGGATGCTAG)" label_class="Criterion met"
chain="CAACCGCCTTGGGTTCTAACCTGTTGCCT (site CAACCGACTAG)" label_class="Criterion met"
chain="CATGTACCTTGGGTTCTAACCTGTTGCCT (site GATGTACCTAG)" label_class="Criterion not met"
chain="GCGACGCCTTGGGTTCTAACCTGTTGCCT (site GCGACGCCTAG)" label_class="Criterion met"

Is recombinant barcode read abundance (log10) for GACCCATCTTGGGTTCTAACCTGTTGCCT (site GACACAACTAG) at or above 0.2?
Criterion not met

Is recombinant barcode read abundance (log10) for AGGCTGACTTGGGTTCTAACCTGTTGCCT (site AGGCTGTCTAG) at or above 0.2?
Criterion not met
